# assay-overview: Quality of castor oil containing emulsions with different steroids (pH, volume distribution, span, storage stability)
# Format: physicochemical
# condition-description: storage stability of emulsion, vehicle CO (castor oil)
assay-readout: Storage 5 and 40°C

Worked cases, answers included:
• C[C@]12CC[C@@H](O)C[C@H]1CC[C@@H]1[C@@H]2CC[C@]2(C)[C@@H](C(=O)CO)CC[C@@H]12 [Tetrahydrodeoxycorticosterone, 5β-pregnan-3α,21-diol-20-one] = >1 month months
• C[C@]12C=CC(=O)C=C1CC[C@@H]1[C@@H]2[C@@H](O)C[C@@]2(C)[C@H]1CC[C@]2(O)C(=O)CO [Prednisolone, reference compound] = >2 months
• CC(=O)[C@H]1CC[C@H]2[C@@H]3CC=C4C[C@@H](OS(=O)(=O)O)CC[C@]4(C)[C@H]3CC[C@]12C [Pregnenolone sulphate, 5-pregnen-3β-ol-20-one-sulphate] = >1 month months

Please give the measured Storage 5 and 40°C for this compound: C[C@]12CC[C@@H](O)C[C@@H]1CC[C@@H]1[C@@H]2CC[C@]2(C)C(=O)CC[C@@H]12 [Androsterone, 5α-androstan-3α-ol-17-one]
>1 month months

Please give the measured Storage 5 and 40°C for this compound: CC(=O)[C@H]1CC[C@H]2[C@@H]3CC[C@H]4C[C@H](O)CC[C@]4(C)[C@H]3CC[C@]12C [Allo pregnanolone, 5α-pregnan-3β-ol-20-one]
>3 months

Please give the measured Storage 5 and 40°C for this compound: CC(=O)[C@H]1CC[C@H]2[C@@H]3CC[C@@H]4C[C@@H](O)CC[C@]4(C)[C@H]3CC[C@]12C [Epipreganolone, 5β-pregnan-3β-ol-20-one]
>4 months
